Please respond with reported interaction score for every item in the list.
Target: T1, P2-AA-1HAA-I
T1 chain: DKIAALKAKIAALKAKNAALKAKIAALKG
Experiment: two-hybrid library CCmax;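 note: natural log of median RNA to DNA barcode read ratio; higher means stronger binding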
Details: mean of both orientations
Answers are plain numbers.

Please review the following examples before continuing.
// query Query interaction score for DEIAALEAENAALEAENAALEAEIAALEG [P1-AA]
// result 2.01

// query Query interaction score for DEIAALEAEAAALEAENAALEAEIAALEG [P1-AA-1HAA-A]
// result 2.26

// query Query interaction score for DEIAALEAEDAALEAENAALEAEIAALEG [P1-AA-1HAA-D]
// result 1.89

// query Query interaction score for DEIAALEAESAALEAENAALEAEIAALEG [P1-AA-1HAA-S]
// result 2.17

// query Query interaction score for DEIAALEAEVAALEAENAALEAEIAALEG [P1-AA-1HAA-V]
// result 2.11

For every item in the list below, what is its measured interaction score?
1. DEIAALEAEHAALEAENAALEAEIAALEG [P1-AA-1HAA-H]
2. DEIAALEAELAALEAENAALEAEIAALEG [P1-AA-1HAA-L]
3. DEIAALEAEYAALEAENAALEAEIAALEG [P1-AA-1HAA-Y]
4. DEIAALEAEIAALEAENAALEAEIAALEG [P1-AA-1HAA-I]
5. DEIAALEAETAALEAENAALEAEIAALEG [P1-AA-1HAA-T]
6. DEIAALEAERAALEAENAALEAEIAALEG [P1-AA-1HAA-R]
7. DEIAALEAEKAALEAENAALEAEIAALEG [P1-AA-1HAA-K]

// result
[1.98, 1.62, 2.07, 2.11, 2.05, 1.99, 1.82]
